# Tested on: L1210 leukemia ip in BDF1 mice, survival T/C
# Experiment: NCI In Vivo Anticancer Drug Screen. Data for tumor model L1210 Leukemia (intraperitoneal) in B6D2F1 (BDF1) mice
# Experimental conditions: endpoint: mean survival time; dose: 100.0 mg/kg/injection; schedule: Q01DX001 (ip); vehicle: carboxymethylcellulose (CMC); higher = longer survival
Inconclusive results and toxic doses are left out.
Recorded metric: T/C

Item smiles: CCCCNC(=O)OCC
Recorded metric: T/C
Readout value: 98 % of control
--
Item smiles: O=C(Nc1ccc(F)cc1)Nc1cccc(Cl)c1
Recorded metric: T/C
Readout value: 101 % of control
--
Item smiles: CN(C)c1nc2ccccc2o1
Recorded metric: T/C
Readout value: 94 % of control
--
Item smiles: CN(C)c1nc(N)nc(Nc2ccc(Br)cc2)c1N=O
Recorded metric: T/C
Readout value: 95 % of control
--
Item smiles: COc1ccc(OC)c(/C=C/c2ccnc3ccccc23)c1
Recorded metric: T/C
Readout value: 96 % of control
--
Item smiles: CCC(=O)O[C@H]1CC[C@H]2[C@@H]3[C@H](C)CC4=CC(=O)CC[C@]4(C)[C@H]3CC[C@]12C
Recorded metric: T/C
Readout value: 97 % of control
--
Item smiles: CCOC=Nc1cc(-n2cnc3c(Cl)ncnc32)ccc1C
Recorded metric: T/C
Readout value: 87 % of control
--
Item smiles: CCOC(=O)CN(c1ccccc1C(=O)OC)S(=O)(=O)c1ccc(C)cc1
Recorded metric: T/C
Readout value: 112 % of control

====

# System: L1210 leukemia ip in BDF1 mice, survival T/C
# Experiment: NCI In Vivo Anticancer Drug Screen. Data for tumor model L1210 Leukemia (intraperitoneal) in B6D2F1 (BDF1) mice
# Experimental conditions: endpoint: mean survival time; dose: 200.0 mg/kg/injection; schedule: Q01DX009 (ip); vehicle: saline with Tween-80; higher = longer survival
Inconclusive results and toxic doses are left out.

Molecule: O/N=C\c1ccc(/C=N/O)cc1
T/C: 97 % of control
--
Molecule: Nc1c(I)cc(C(=O)O)c(O)c1I
T/C: 94 % of control
--
Molecule: O=C(O)c1ccccc1C(=O)OO
T/C: 97 % of control
--
Molecule: c1ccc2sc(SN3CCOCC3)nc2c1
T/C: 92 % of control
--
Molecule: Cc1ccc(NC(=O)OCCSC(=O)COc2ccc(Cl)cc2Cl)cc1
T/C: 98 % of control
--
Molecule: c1ccc(NC2=NCCO2)nc1
T/C: 102 % of control
--
Molecule: N/C(=N\N=C\c1c(F)c(F)c(F)c(F)c1F)N[N+](=O)[O-]
T/C: 97 % of control
--
Molecule: CC(C)(CO)NC(=O)CC1CCCCC1
T/C: 97 % of control
--
Molecule: CN(C)c1ccccc1C(=O)N/N=C\c1ccc(O)c(O)c1
T/C: 87 % of control
--
Molecule: CN(C)c1ccc(N=Nc2ccc(Cl)c(Cl)c2)cc1
T/C: 87 % of control
--
Molecule: COC1OC2COc3ccccc3OC2C(NC#N)C1O (centres undefined)
T/C: 96 % of control
--
Molecule: CC(=O)Nc1cc(C/C(N)=N/O)cc(NC(C)=O)c1
T/C: 92 % of control
--
Molecule: c1ccc(N/N=C(\c2ccccc2)c2cccs2)cc1
T/C: 97 % of control
--
Molecule: Cc1cc(OC(=O)Nc2cccc(Cl)c2C)ccc1Cl
T/C: 99 % of control
--
Molecule: Cc1ccc(S(=O)C(c2ccccc2)C(c2ccccc2)C(C)O)cc1 (centres undefined)
T/C: 89 % of control
--
Molecule: O=C(NC(=S)Nc1cccc(O)c1)c1ccco1
T/C: 115 % of control
--
Molecule: O=C(COc1ccc(Cl)c(Cl)c1)Nc1ccc[n+](CC(=O)Nc2ccc(S(=O)(=O)F)cc2)c1
T/C: 87 % of control
--
Molecule: O=C1CCC(=O)N1CC(O)COc1ccc(Cl)cc1 (centres undefined)
T/C: 101 % of control
--
Molecule: c1ccc2c(c1)Nc1ccncc1S2
T/C: 90 % of control
--
Molecule: O=C(O)c1c(Cl)c(-c2c(Cl)c(C(=O)O)c(Cl)c([N+](=O)[O-])c2Cl)c(Cl)c([N+](=O)[O-])c1Cl
T/C: 96 % of control
--
Molecule: Cc1c(Cl)cccc1NC(=O)Nc1nccs1
T/C: 100 % of control
--
Molecule: O=C1c2ccccc2C(=O)c2c(O)ccc(O)c21
T/C: 101 % of control
--
Molecule: COc1ccc(Cl)cc1NC(=O)Oc1ccc(SC)c(C)c1
T/C: 98 % of control
--
Molecule: O=C1c2ccccc2C(=O)N1CNc1cccc(NCN2C(=O)c3ccccc3C2=O)n1
T/C: 91 % of control
--
Molecule: CCCCCCCCCC(=O)CCCC
T/C: 96 % of control
--
Molecule: CCCCCCCCCCCCCCCC(=O)Oc1ccc(/C(CC)=C(/CC)c2ccc(OC(=O)CCCCCCCCCCCCCCC)cc2)cc1
T/C: 91 % of control
--
Molecule: CCCCCCCCCCCC(=O)NC(=O)N1CCOCC1
T/C: 98 % of control
--
Molecule: C/C(Cc1ccccc1)=N/N(C)C
T/C: 104 % of control
--
Molecule: CCNc1cc(Cl)nc(N)n1
T/C: 101 % of control
--
Molecule: COc1ccccc1C1OCC(C)(C)N1C (centres undefined)
T/C: 95 % of control
--
Molecule: O=C(Cn1ccc(=O)[nH]c1=O)c1ccc(Cl)s1
T/C: 97 % of control
--
Molecule: Cc1ccc(S(=O)(=O)OC2COCOC2)cc1
T/C: 102 % of control
--
Molecule: CC(CCC(C)C(=O)O)C(=O)O (centres undefined)
T/C: 102 % of control
--
Molecule: CCCCNC(=O)OCC
T/C: 93 % of control
--
Molecule: CC(C)N(C(=O)c1ccc(C(=O)N(c2ccccc2)C(C)C)cc1)c1ccccc1
T/C: 90 % of control
--
Molecule: Cn1c(=O)c2c(ncn2CCO)n(C)c1=O (tested in a mixture with another compound)
T/C: 94 % of control
--
Molecule: CC(=O)Nc1ccc(OC(=O)Nc2ccc(Cl)cc2C(F)(F)F)cc1
T/C: 104 % of control
--
Molecule: CNc1c(Cl)c(Cl)cc(Cl)c1Cl
T/C: 110 % of control
--
Molecule: c1ccc(N2N=NC3C4CCC(C4)C32)cc1 (centres undefined)
T/C: 98 % of control
--
Molecule: CCCC/C=C/C(C)O (centres undefined)
T/C: 97 % of control
--
Molecule: N#CCC(NC(=O)OCc1ccccc1)C(=O)OCc1ccccc1 (centres undefined)
T/C: 96 % of control
--
Molecule: O=Cc1[nH]c(=S)[nH]c(=O)c1Cc1ccc(Br)cc1
T/C: 91 % of control
--
Molecule: O=c1[nH]c(Cl)nc2c(Cl)c(C(Cl)(Cl)Cl)nn12
T/C: 93 % of control
--
Molecule: N#Cc1c(Oc2ccccc2)c(F)c(Oc2ccccc2)c(F)c1Oc1ccccc1
T/C: 91 % of control

====

We begin with a simple list: items and their reported T/C.
# Test system: L1210 leukemia ip in BDF1 mice, survival T/C
# Experiment: NCI In Vivo Anticancer Drug Screen. Data for tumor model L1210 Leukemia (intraperitoneal) in B6D2F1 (BDF1) mice
# Experimental conditions: endpoint: mean survival time; dose: 150.0 mg/kg/injection; schedule: Q01DX001 (ip); vehicle: saline; higher = longer survival
Inconclusive results and toxic doses are left out.

Compound: Cc1ccc(S(=O)(=O)NC(CO)C(=O)O)cc1 (centres undefined)
T/C: 92 % of control
//
Compound: CC(C)(C)N1CCC1CN (centres undefined)
T/C: 102 % of control
//
Compound: C[n+]1cccc2cccc(C(=O)O)c21
T/C: 94 % of control
//
Compound: CN(CC(=O)O)C(=O)c1ccccc1
T/C: 96 % of control
//
Compound: Nc1ncnc2c1ncn2C1CC(COP(=O)(O)O)C(O)C1O (centres undefined)
T/C: 87 % of control
//
Compound: CNC(=O)NC(C)=C(C#N)C#N
T/C: 111 % of control
//
Compound: CCCCCCCCCCCCCCOS(=O)(=O)O
T/C: 92 % of control
//
Compound: CN1C2C=C(c3ccccc3)C(Br)C1CC2 (centres undefined)
T/C: 98 % of control
//
Compound: O=C(Nc1cc(Cl)ccc1Oc1cc(Cl)c(Cl)cc1S(=O)(=O)O)Nc1cc(Cl)ccc1Oc1cc(Cl)c(Cl)cc1S(=O)(=O)O
T/C: 97 % of control

====

# Test system: L1210 leukemia ip in BDF1 mice, survival T/C
# Experiment: NCI In Vivo Anticancer Drug Screen. Data for tumor model L1210 Leukemia (intraperitoneal) in B6D2F1 (BDF1) mice
# Experimental conditions: endpoint: mean survival time; dose: 100.0 mg/kg/injection; schedule: Q04DX003 (ip); vehicle: Klucel (hydroxypropylcellulose) (HPC); higher = longer survival
Inconclusive results and toxic doses are left out. Square brackets hold non-standard residues; d marks the D form. Peptide text beside a SMILES is read from it. * marks the point of attachment. ξ: configuration not given here. ξF = NC(Cc1ccccc1)C(=O)O; Cbz = O=C(OCc1ccccc1)*; CH2Cl = ClC*
Recorded metric: T/C

Compound: O=C(COc1ccccc1)Nc1ccc([N+](=O)[O-])cc1O
Recorded metric: T/C
Readout value: 97 % of control

Compound: CCOC(=O)C1CCC(=O)N1 (stereo not given)
Recorded metric: T/C
Readout value: 96 % of control

Compound: CCCCCCC/C=C/c1c(C)[nH]c2ccccc2c1=O
Recorded metric: T/C
Readout value: 96 % of control

Compound: CCOC(=O)CCC(NC(=O)c1ccc(I)cc1)C(=O)OCC (stereo not given)
Recorded metric: T/C
Readout value: 94 % of control

Compound: COc1ccc(CNC(=O)NCCCl)cc1OC
Recorded metric: T/C
Readout value: 115 % of control

Compound: CCOc1ccc(OCC(=O)O)cc1
Recorded metric: T/C
Readout value: 93 % of control

Compound: CCCCCCCc1cc2ccccc2c2c(N)nc(N)nc12
Recorded metric: T/C
Readout value: 107 % of control

Compound: COc1ccc(N=Cc2c(O)ccc3ccccc23)cc1
Recorded metric: T/C
Readout value: 107 % of control

Compound: OC1(C#CC2(O)c3ccccc3-c3ccccc32)c2ccccc2-c2ccccc21
Recorded metric: T/C
Readout value: 106 % of control

Compound: CSc1ncnc2c1ncn2NC(=O)C1CCC(=O)N1 (stereo not given)
Recorded metric: T/C
Readout value: 107 % of control

Compound: CSc1n[nH]c(/N=N/N(C)C)c1C(N)=O
Recorded metric: T/C
Readout value: 99 % of control

Compound: O=C(O)c1cc(C(Cl)(Cl)Cl)ccc1C(Cl)(Cl)Cl
Recorded metric: T/C
Readout value: 96 % of control

Compound: COc1cc(N(CCCl)CCCl)ccc1C1N(Cc2ccc(N(C)C)cc2)CCCN1Cc1ccc(N(C)C)cc1
Recorded metric: T/C
Readout value: 100 % of control

Compound: Cc1ccc(S(=O)(=O)OCCS(C)(=O)=O)cc1
Recorded metric: T/C
Readout value: 101 % of control

Compound: O=C(O)C(Cc1cc(I)c(O)c(I)c1)c1ccccc1 (stereo not given)
Recorded metric: T/C
Readout value: 100 % of control

Compound: OC(Br)C1C(c2ccccc2)N1C1CCCCC1 (stereo not given)
Recorded metric: T/C
Readout value: 98 % of control

Compound: O=C(CNC(=O)OCc1ccccc1)NCC(=O)NC(Cc1ccccc1)C(=O)CCl (stereo not drawn) (Cbz-Gly-Gly-[ξF]-CH2Cl)
Recorded metric: T/C
Readout value: 104 % of control

Compound: O=[N+]([O-])c1ccc(N2CCCCC2)cc1
Recorded metric: T/C
Readout value: 107 % of control

Compound: COC(=O)C(C)(N)Cc1ccc(O)c(C)c1 (stereo not given)
Recorded metric: T/C
Readout value: 108 % of control

Compound: Nc1ccc(OCc2ccc(C(=O)Nc3cccc(S(=O)(=O)F)c3)cc2)c(Cl)c1
Recorded metric: T/C
Readout value: 100 % of control

Compound: Cc1ccc(NC(=O)NCCBr)cc1C
Recorded metric: T/C
Readout value: 96 % of control

Compound: Cn1c(=S)sc2ccccc21
Recorded metric: T/C
Readout value: 107 % of control

Compound: CCOC(=O)C(C)(C)C(C)=O
Recorded metric: T/C
Readout value: 103 % of control

Compound: O=C(O)CCc1cnc2ccccc2n1
Recorded metric: T/C
Readout value: 106 % of control

Compound: c1ccc(Oc2ccccn2)cc1
Recorded metric: T/C
Readout value: 94 % of control

Compound: CCCC(C)Cc1ccc(C(=O)O)cc1 (stereo not given)
Recorded metric: T/C
Readout value: 97 % of control

Compound: CSc1ncnc2c1ncn2-n1cccc1
Recorded metric: T/C
Readout value: 93 % of control

Compound: O=C(Nc1ccccc1C(F)(F)F)OCCN1CCNC1=S
Recorded metric: T/C
Readout value: 101 % of control

Compound: O=C1NC2(CCc3ccccc32)C(=O)O1 (stereo not given)
Recorded metric: T/C
Readout value: 110 % of control

Compound: O=S(=O)(F)c1cccc2nsnc12
Recorded metric: T/C
Readout value: 87 % of control

Data provenance is PubChem BioAssay AID248.
